For each entry below, report its Emax value.
system: IL6; assay: IL-1β stimulated IL6 inhibition assay in PBMC; type: cell-based; settings: PBMC; human PBMCs, IL-1β stimulation, compound overnight, IL6 by MSD after 24 hrs; read-out: IL1β stim IL6 inhibition Ymax

Examples with answers:
compound | experimentalValue
O=C1CCC(N2Cc3cc(N4CC(F)(CN5CCC(n6cc7cc(NC(=O)c8cnn9cccnc89)c(OCC8CC8)cc7n6)CC5)C4)ccc3C2=O)C(=O)N1 (centres unmarked) | ≥ 90%
O=C1CCC(N2Cc3cc(N4CC(CN5CCC(N6Cc7cc(NC(=O)c8cnn9cccnc89)c(OCC8CC8)cc7C6=O)CC5)C4)ccc3C2=O)C(=O)N1 (centres unmarked) | < 70%
CC(C)Oc1cc2c(cc1NC(=O)c1cnn3cccnc13)CN([C@H]1CC[C@H](N(C)C3CN(c4ccc5c(c4)C(=O)N(C4CCC(=O)NC4=O)C5=O)C3)CC1)C2=O (some centres unmarked) | ≥ 90%
CC(C)Oc1cc2c(cc1NC(=O)c1cnn3cccnc13)CN(C1CCN(CC3CN(c4ccc5c(c4)CN(C4CCC(=O)NC4=O)C5=O)C3)CC1)C2=O (centres unmarked) | ≥ 90%
O=C1CCC(N2C(=O)c3ccc(N4CC(N5CCC(N6Cc7cc(NC(=O)c8cnn9cccnc89)c(N8CCC(N9CCC9)CC8)cc7C6=O)CC5)C4)cc3C2=O)C(=O)N1 (centres unmarked) | ≥ 90%

Provide reported Emax for each item, in the same order as listed.
1. O=C1CCC(N2Cc3cc(N4CCC(CN5CCC(N6Cc7cc(NC(=O)c8cnn9cccnc89)c(N8CCC(N9CCC9)CC8)cc7C6=O)CC5)CC4)ccc3C2=O)C(=O)N1 (centres unmarked)
2. CC(C)Oc1cc2c(cc1NC(=O)c1cnn3cccnc13)CN(C1CCN(CC3CCN(c4ccc5c(c4)CN(C4CCC(=O)NC4=O)C5=O)CC3)CC1)C2=O (centres unmarked)
3. CC(C)Oc1cc2c(cc1NC(=O)c1cnn3cccnc13)CN(C1CCN(C3CCN(c4ccc5c(c4)C(=O)N(C4CCC(=O)NC4=O)C5=O)CC3)CC1)C2=O (centres unmarked)
4. CN(C1CN(c2ccc3c(c2)CN(C2CCC(=O)NC2=O)C3=O)C1)[C@H]1CC[C@H](n2cc3cc(NC(=O)c4cnn5cccnc45)c(OCC4CC4)cc3n2)CC1 (some centres unmarked)
5. CC(C)Oc1cc2c(cc1NC(=O)c1cnn3cccnc13)CN(C1CCN(C3CN(c4ccc5c(c4)C(=O)N(C4CCC(=O)NC4=O)C5=O)C3)CC1)C2=O (centres unmarked)

≥ 90%
≥ 90%
80 to 90%
≥ 90%
≥ 90%

Return reported Emax. Input compound: O=C1CCC(N2C(=O)c3ccc(N4CC(CN5CCC(N6Cc7cc(NC(=O)c8cnn9cccnc89)c(OCC8CC8)cc7C6=O)CC5)C4)cc3C2=O)C(=O)N1 (centres unmarked) ≥ 90%
